Please respond with reported zone of inhibition at 100 µg/disc for every item in the list.
System: Thielaviopsis paradoxa
PROTOCOL TEXT: Antifungal activity against Ceratocystis paradoxa assessed as mycelial growth inhibition at 100 ug/disc after 2 to 4 days by disk diffusion method relative to control
Assay type: functional
CONDITION SET: read-out: DIZ
Numbers only, in mm.

MOLECULE	READOUT UNITS	zone of inhibition at 100 µg/disc
COc1c(-c2ccc(O[C@@H]3O[C@H](CO)[C@@H](O)[C@H](O)[C@H]3O)cc2)oc2c(O[C@@H]3O[C@H](CO)[C@@H](O)[C@H](O)[C@H]3O)c(O)c(C)c(O)c2c1=O	mm	0
COC(=O)Nc1nc2ccccc2[nH]1 [CARBENDAZIM]	mm	25.7
O=c1cc(-c2ccc(O)cc2)oc2cc(O[C@@H]3O[C@H](CO)[C@@H](O)[C@H](O)[C@H]3O)cc(O)c12 [APIGETRIN]	mm	0
O=C(/C=C/c1ccc(O)cc1)OC[C@H]1O[C@@H](Oc2c(-c3ccc(O)cc3)oc3cc(O)cc(O)c3c2=O)[C@H](O)[C@@H](O)[C@@H]1O [TILIROSIDE]	mm	7.1
COc1cc([C@H]2Oc3c(O)cc(CCCO)cc3[C@@H]2CO)ccc1O[C@@H]1O[C@@H](C)[C@H](O)[C@@H](O)[C@H]1O [MASSONIANOSIDE B]	mm	5.6
O=c1ccc2ccc(O[C@@H]3O[C@H](CO)[C@@H](O)[C@H](O)[C@H]3O)cc2o1 [SKIMMIN]	mm	1.5
COc1cc(CCCO)ccc1O[C@@H]1O[C@H](CO)[C@@H](O)[C@H](O)[C@H]1O [DIHYDROCONIFERIN]	mm	0
COc1c(-c2ccc(O)cc2)oc2c(O[C@@H]3O[C@H](CO)[C@@H](O)[C@H](O)[C@H]3O)c(O)c(C)c(O)c2c1=O	mm	6.2

Give one value of zone of inhibition at 100 µg/disc per listed molecule.
1. O=c1c(O[C@@H]2O[C@H](CO)[C@@H](O)[C@H](O)[C@H]2O)c(-c2ccc(O[C@@H]3O[C@H](CO)[C@@H](O)[C@H](O)[C@H]3O)cc2)oc2cc(O)cc(O)c12
2. C[C@@H]1O[C@@H](OC[C@H]2O[C@@H](OC(=O)/C=C/c3ccccc3)[C@H](O)[C@@H](O)[C@@H]2O)[C@H](O)[C@H](O)[C@H]1O [GLEDITSCHIASIDE A]

A:
0
0
